Reference for the values: paper PMC11514837

# TEST_TARGET: human AHR (Homo sapiens, UniProt P35869)
# Sequence (P35869 11-848): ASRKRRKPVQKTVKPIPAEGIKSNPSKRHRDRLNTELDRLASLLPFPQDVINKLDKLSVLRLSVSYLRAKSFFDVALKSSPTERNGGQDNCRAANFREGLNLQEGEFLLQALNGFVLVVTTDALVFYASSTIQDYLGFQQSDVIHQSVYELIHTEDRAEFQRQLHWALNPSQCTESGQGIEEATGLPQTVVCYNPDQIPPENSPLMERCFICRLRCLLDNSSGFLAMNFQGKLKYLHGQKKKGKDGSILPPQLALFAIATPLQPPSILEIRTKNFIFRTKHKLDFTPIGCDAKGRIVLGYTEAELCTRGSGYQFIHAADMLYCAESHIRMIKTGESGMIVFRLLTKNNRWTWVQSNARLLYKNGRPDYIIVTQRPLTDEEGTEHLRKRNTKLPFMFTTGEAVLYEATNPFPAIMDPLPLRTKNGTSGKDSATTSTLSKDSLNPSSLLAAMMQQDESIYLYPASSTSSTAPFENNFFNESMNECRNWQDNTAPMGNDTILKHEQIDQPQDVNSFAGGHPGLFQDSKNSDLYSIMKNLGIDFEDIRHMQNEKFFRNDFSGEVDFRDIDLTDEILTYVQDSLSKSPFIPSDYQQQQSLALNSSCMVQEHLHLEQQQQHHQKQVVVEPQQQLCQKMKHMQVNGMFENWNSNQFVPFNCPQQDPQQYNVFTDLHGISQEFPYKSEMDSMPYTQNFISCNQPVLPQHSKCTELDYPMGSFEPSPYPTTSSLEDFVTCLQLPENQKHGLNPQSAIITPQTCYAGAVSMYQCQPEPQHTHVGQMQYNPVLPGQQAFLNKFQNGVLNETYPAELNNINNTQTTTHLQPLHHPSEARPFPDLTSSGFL
# CONDITION_NOTES: exposures up to 30 μM
TEST_READOUT: AHR activation in human HuH-7 luciferase reporter cells

INSERT INTO assay_data (compound, result) VALUES
  ('c1ccc2c(c1)-c1cccc3c1c-2cc1ccccc13 [Benzo[b]fluoranthene]', 'direct AHR activators'),
  ('c1ccc2c3c(ccc2c1)-c1cccc2cccc-3c12 [Benzo[j]fluoranthene]', 'direct AHR activators'),
  ('c1ccc2cc3c(cc2c1)-c1cccc2cccc-3c12 [Benzo[k]fluoranthene, Benzo(k)fluoranthene]', 'direct AHR activators'),
  ('O=C1c2ccccc2C(=O)c2c1ccc1ccccc21 [Benzanthraquinone]', 'direct AHR activators');
